- Target Entity: Dopamine (DA) uptake into rat brain synaptosome (striatum) (Rattus norvegicus, UniProt P23977)
- Construct: used as crude synaptosome fraction
- Sequence (P23977 whole entry): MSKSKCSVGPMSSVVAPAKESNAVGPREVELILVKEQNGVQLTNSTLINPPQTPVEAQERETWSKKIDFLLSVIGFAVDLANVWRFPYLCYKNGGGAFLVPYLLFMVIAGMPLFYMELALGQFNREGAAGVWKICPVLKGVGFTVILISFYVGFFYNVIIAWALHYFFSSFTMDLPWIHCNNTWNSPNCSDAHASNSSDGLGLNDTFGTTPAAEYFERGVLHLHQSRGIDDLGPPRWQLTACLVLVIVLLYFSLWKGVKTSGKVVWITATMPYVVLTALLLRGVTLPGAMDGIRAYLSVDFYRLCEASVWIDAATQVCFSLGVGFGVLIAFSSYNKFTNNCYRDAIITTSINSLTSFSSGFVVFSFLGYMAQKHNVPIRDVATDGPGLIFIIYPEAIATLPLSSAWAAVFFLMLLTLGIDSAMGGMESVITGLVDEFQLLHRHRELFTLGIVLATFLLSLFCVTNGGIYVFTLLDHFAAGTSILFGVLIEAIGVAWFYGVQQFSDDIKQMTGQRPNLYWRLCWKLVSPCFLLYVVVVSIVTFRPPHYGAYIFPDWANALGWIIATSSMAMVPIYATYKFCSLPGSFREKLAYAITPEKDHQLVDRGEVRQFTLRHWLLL
- Assay Info: Inhibitory activity on dopamine (DA) uptake into rat brain synaptosome
- Condition Parameters: tritium labeled DA 2 nM uptake, 10 min at 37° C., read-out: 50% inhibitory concentration
In this scheme, each record receives a class according to its IC50; the ranges are low value: < 9 nM; medium value: ≥ 9 nM and < 30 nM; high value: ≥ 30 nM

**Query** Which of the defined bands does the recorded IC50 of c1cc(N(c2ccc3ccsc3c2)[C@H]2CCNC2)cs1 sit within?
**Result** medium value

**Query** Which of the defined bands does the recorded IC50 of Fc1ccc(N(c2ccc(N3CCNCC3)cn2)[C@H]2CCNC2)cc1Cl sit within?
**Result** low value

**Query** Which of the defined bands does the recorded IC50 of Cc1cc(N(c2ccccc2)[C@H]2CCNC2)ccc1F sit within?
**Result** medium value

**Query** Which of the defined bands does the recorded IC50 of c1cc2cc(N(c3ccc4sccc4c3)[C@H]3CCNC3)ccc2s1 sit within?
**Result** high value

**Query** Which of the defined bands does the recorded IC50 of Fc1ccc(N(c2ccc3ccsc3c2)[C@H]2CCNC2)cc1 sit within?
**Result** high value

**Query** Which of the defined bands does the recorded IC50 of Fc1ccc(N(c2ccc3ncccc3c2)[C@H]2CCNC2)cc1Cl sit within?
**Result** low value

**Query** Which of the defined bands does the recorded IC50 of Fc1cncc(N(c2ccc(F)c(Cl)c2)[C@H]2CCNC2)c1 sit within?
**Result** medium value

**Query** Which of the defined bands does the recorded IC50 of Fc1ccc(N(c2ccc(Cl)c(Cl)c2)[C@H]2CCNC2)nc1 sit within?
**Result** medium value
